test system: MS2 coat protein; assay: apparent Kd, MS2 coat protein; higher = weaker binding; RNA-MaP array; theophylline 2 mM where present; details: ligand present: theophylline; designed as: OFF switch for theophylline
Given measured apparent Kd, output Yes if it is greater than or equal to 90 nM and No if not.

{"monomer-sequence": "UGCUGACAAGGACAUGGAUGAUCAGCUGAUACCAGCCUGGAAACAGGCCCUUGGCAGCAGCACAUGAGGAUCACCCAUGUAAUAA", "class-label": "No"}
{"monomer-sequence": "UCGGCAGUGAACGAUACCAGCGUCACGUGGCCGGUGGUCACAUGAGGAUCACCCAUGUAACGCCCUUGGCAGCGUGCGCGUACCG", "class-label": "Yes"}
{"monomer-sequence": "AGACAUGAGGAUCACCCAUGUAGUAUGGAUACCAGAUCCAGAUUUAUCCCUUGGCAGCUGUGGUACAGUGAUGGAUUGCUCCUAG", "class-label": "No"}
{"monomer-sequence": "UGUCUAGUAAUCGAUACCAGCUACAUGAGGAUCACCCAUGUAGUUCGAACGGCCGCAUGUAGCCCUUGGCAGCGAAUAGUUACAU", "class-label": "No"}
{"monomer-sequence": "UUGGUAGGACAGCUCAUAUAAGCAUGUGAUACCAGCUAGAAAACUAGCCCUUGGCAGCACUUUACAUGAGGAUCACCCAUGUCCC", "class-label": "Yes"}
{"monomer-sequence": "UUAUUUAUAUUAGAUACCAGUUUAAUGGCCGCAAAUCCUGACAUGAGGAUCACCCAUGUAAGCCCUUGGCAGCUGGUAUGGGUUU", "class-label": "No"}
{"monomer-sequence": "CGAUACGUAACUGAUACCAGUGUACUGACAUGAGGAUCACCCAUGUUGGGUUUUGUUGUACACCCUUGGCAGCAGAAUCGUAUCG", "class-label": "Yes"}
{"monomer-sequence": "ACAUCCAGGUUAAUCGUGGGCAUGGUCGAUACCAGUAUUUUAAUCUACCCUUGGCAGCGACAUGAGGAUCACCCAUGUGCGAUGA", "class-label": "No"}
{"monomer-sequence": "AGUAUACAUUCUGAUACCAGAGACAUGAGGAUCACCCAUGUCCGAUCGUCCUGCCUCAGACUCCCUUGGCAGCAGGAUAUGUGCU", "class-label": "No"}
{"monomer-sequence": "UAUAUAUAAAUUGAUACCAGCGAGAAAACAUGAGGAUCACCCAUGUUCGCCCAUGUUAAGCGCCCUUGGCAGCAAUAUUAUUAUU", "class-label": "No"}
{"monomer-sequence": "GGUGGAGGCGUGGGACUUGUCUGAACGGAUACCAGCCACAUCACGGGCCCUUGGCAGCUGUACAUGAGGAUCACCCAUGUCGGUC", "class-label": "Yes"}
{"monomer-sequence": "UUUUAAAGCAUGGCGUAUCGGAAAACCGAUACCAGUACAGAAAUGUACCCUUGGCAGCGGCAUUUUACAUGAGGAUCACCCAUGU", "class-label": "No"}
{"monomer-sequence": "UGACAUUGCUGCGAUACCAGACAUGAGGAUCACCCAUGUGCCAAAUAAACGUACAUAAAUGUCCCUUGGCAGCGCAGCAAUGUCU", "class-label": "Yes"}

* * *

test system: MS2 coat protein; experiment: apparent Kd, MS2 coat protein; higher = weaker binding; RNA-MaP array; settings: ligand present: flavin mononucleotide; designed as: ON switch for flavin mononucleotide
measurement-kind: apparent Kd (nM)

{"monomer-sequence": "AGCCUGGAAGCAGGAUAUGGGAUACAUGAGGAUCACCCAUGUAAGAUAAUAGGGCAACGAAGAAGCCAGAAGGGCUCGAGGUAA", "measurement-kind": "apparent Kd", "measured": 13.1}
{"monomer-sequence": "CGUUGACAUGAGGAUCACCCAUGUUCCCUAGCCACAGGAUAUCGACGCGUGCUCGCUAGACGAGAAGGGUGGUAAA", "measurement-kind": "apparent Kd", "measured": 11.7}
{"monomer-sequence": "CAACAGGAGCAGAAGGUCCAACUCAUAAAUACGGAAGGAUAUGCGUGACCAACUAAAGAAACAUGAGGAUCACCCAUGUAAGCG", "measurement-kind": "apparent Kd", "measured": 7.53}
{"monomer-sequence": "GAAACAUUCCCGAGUUUCUACAUGAGGAUCACCCAUGUCCCAUAGGAUAUCUCUACCAGCCGCCGAGAGAAGGAUGUAGUCACU", "measurement-kind": "apparent Kd", "measured": 148}
{"monomer-sequence": "CGGUCCACUGAGAAGGCUCACUCCAUGCCGAGGAGAGGAUAUCAAACCUAUAUUGCACGCAGCGAACAUGAGGAUCACCCAUGU", "measurement-kind": "apparent Kd", "measured": 8.73}
{"monomer-sequence": "AUCACCUUCAAGAAGGUCCCAUACAUGAGGAUCACCCAUGUAAACAAAAUAAUAUGAAAUAAAAGGAAGGAUAUUGAACCAUGA", "measurement-kind": "apparent Kd", "measured": 30.3}
{"monomer-sequence": "UAGUAAACCGCAGGAUAUCCAACUUGGGCACCAGGAGAAGGGCGAUUAACAUGAGGAUCACCCAUGUAUUCGGAGAGCUUACCU", "measurement-kind": "apparent Kd", "measured": 9.18}
{"monomer-sequence": "ACCAGUAAAUAGCAAUCACAUGAGGAUCACCCAUGUACUGACAAGGAUAUAGUCUAAGAAUAGUGCUAGAAGGUGUUUCCCUAA", "measurement-kind": "apparent Kd", "measured": 101}
{"monomer-sequence": "GCCUGACCCAUAGGAUAUCGCGUAGCUGCCGGCUACGACACAUGAGGAUCACCCAUGUAUCAAAUCGAGAAGGAUGAUCUGCAA", "measurement-kind": "apparent Kd", "measured": 168}
{"monomer-sequence": "GUGAUACAUGAGGAUCACCCAUGUUAAGGUCUUGCAGGAUAUCCAGAACUCGAGAUAGAUGGAGAAGGGCAUGCAU", "measurement-kind": "apparent Kd", "measured": 9.76}
{"monomer-sequence": "CAACUAAAGGAGAAGGCUAACAUGAGGAUCACCCAUGUCCGCGUGUCCGCUUAUAAUGCGCGCAUAGAGGAUAUCCCAAGUUUA", "measurement-kind": "apparent Kd", "measured": 13.6}
{"monomer-sequence": "UUCUCAUCGUACAUGAGGAUCACCCAUGUCUCCCAUUUACCCUAGGAUAUGAAAGACCUUUACUCUCAGAAGGAGGAUGAUGCA", "measurement-kind": "apparent Kd", "measured": 51.9}
{"monomer-sequence": "GGCGGGAGAAUAGGAUAUUCCGGUAAUCGACAUGAGGAUCACCCAUGUACCGUUCAACCGAUACCGAAGAAGGAUUAUAAGCCU", "measurement-kind": "apparent Kd", "measured": 13.8}
{"monomer-sequence": "AUAGUGCGGCUGAAGGAUAUGGAACCCGCGACAUGAGGAUCACCCAUGUACUUAAGCGACAUUUGCCAGAAGGUCAAGCAUUCCAU", "measurement-kind": "apparent Kd", "measured": 11.2}
{"monomer-sequence": "AGGUGCAUCAAGAAGGAUGACAUGAGGAUCACCCAUGUACAAAAGGCGCGAUUUACAAAUCGUACAUAGGAUAUUGUGCAUGUU", "measurement-kind": "apparent Kd", "measured": 24.6}
{"monomer-sequence": "UAAGGACUUAUAGGAUAUGCAAACAUGAGGAUCACCCAUGUGAACCACGAAAUGACGCAGAAUAAGCAGAAGGAUAGUACGUAC", "measurement-kind": "apparent Kd", "measured": 25.5}
{"monomer-sequence": "GCUAUAUCGUAGCUAACAUGAGGAUCACCCAUGUGAAGGAAGAGAAGGUGCAUCUAACAGACCCGCAAGGAUAUCUAGAUAAAG", "measurement-kind": "apparent Kd", "measured": 16.1}
{"monomer-sequence": "AGUGGGUAUGGGCAGGAUAUACGUCGGGCGACAUGAGGAUCACCCAUGUUGGGCGGUGAAGUUGAGUAGAAGGGCCUCCGCCCGAA", "measurement-kind": "apparent Kd", "measured": 12.1}
{"monomer-sequence": "UAGAAAUCCUUGCAGGAUAUGUUGGAGUCUACAUGAGGAUCACCCAUGUUUAGUAGCAGGCGACGACAGAAGGGCAAUCUCAUGAU", "measurement-kind": "apparent Kd", "measured": 9.18}
{"monomer-sequence": "CUGCGCUCGAAGAAGGGCUGCCACAUGAGGAUCACCCAUGUCACUGACACCGAAGUUAGAAAGUAGCAGGAUAUUCAGGGUCCU", "measurement-kind": "apparent Kd", "measured": 32.4}
{"monomer-sequence": "GAGUACUGGUUAGGGAGAAAUACAUGAGGAUCACCCAUGUCCAGAAGGAUUCAGUAAGUGCCGGAAUAGGAUAUGGAACUAAAA", "measurement-kind": "apparent Kd", "measured": 105}
{"monomer-sequence": "AAUGUACAUGAGGAUCACCCAUGUCGUCUACUUAGAGGAUAUGAUUGGUUACCCAGCUGAUCAGAAGGCUACCGUC", "measurement-kind": "apparent Kd", "measured": 11.9}
{"monomer-sequence": "GACUACCAGUAAGGAUAUGCUCUUAUAAAAGGAGCAGAAGGUACCUGUGACGCCUACGGGCGACAUGAGGAUCACCCAUGUUCU", "measurement-kind": "apparent Kd", "measured": 386}
{"monomer-sequence": "GCAAUACAUGAGGAUCACCCAUGUUUUAGAUACGAAGGAUAUGUGUAAGCGUACUAAUGUACAGAAGGUCGGAUUU", "measurement-kind": "apparent Kd", "measured": 9.26}
{"monomer-sequence": "AAGACGGUUCAGAAGGUCUCUAAGCAGGUUACAGAAGGAUAUGAUGCGGACACAUGAGGAUCACCCAUGUUCUAGGGUACCCUA", "measurement-kind": "apparent Kd", "measured": 19}
{"monomer-sequence": "GUCCUACAUGAGGAUCACCCAUGUGGUCGUGGUAUAGGAUAUUAGGACUUUGUAAUCAGUUAAGAAGGAUAUCACU", "measurement-kind": "apparent Kd", "measured": 17.4}
{"monomer-sequence": "UAAAUGUUUUAGAAGGGAUAAUGCGGCAUUGAAUCAGGAUAUAAAGCUAUAAACACAUGAGGAUCACCCAUGUCCCAGGUUAAA", "measurement-kind": "apparent Kd", "measured": 143}
{"monomer-sequence": "UUUACGAACGUGGAAAUACAUGAGGAUCACCCAUGUCAAUUGUAGGAUAUCCGGCUCAAAGAAAUGGAGAAGGACAACGACUCC", "measurement-kind": "apparent Kd", "measured": 12.7}
